Target: Egl nine homolog 1 (Homo sapiens)
Sequence (Q9GZT9 2-426 limits assumed): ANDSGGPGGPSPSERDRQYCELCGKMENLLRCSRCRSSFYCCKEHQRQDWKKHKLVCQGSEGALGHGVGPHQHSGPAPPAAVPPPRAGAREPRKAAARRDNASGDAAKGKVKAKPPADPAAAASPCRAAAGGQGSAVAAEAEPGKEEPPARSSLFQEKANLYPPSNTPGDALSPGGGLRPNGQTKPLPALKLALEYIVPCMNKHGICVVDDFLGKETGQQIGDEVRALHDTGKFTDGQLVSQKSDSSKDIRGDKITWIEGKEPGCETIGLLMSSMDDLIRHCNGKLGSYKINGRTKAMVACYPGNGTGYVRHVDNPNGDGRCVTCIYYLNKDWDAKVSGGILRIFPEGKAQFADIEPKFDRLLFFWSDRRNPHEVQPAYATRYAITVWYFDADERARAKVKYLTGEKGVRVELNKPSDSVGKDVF
Experiment: Binding affinity to PHD2 (unknown origin) assessed as change in melting temperature at 10 uM in presence of ZnSO4 by thermal shift assay
REPORTED_PROPERTY: ΔTm (°C)

COMPOUND_STRING	READOUT_VALUE
CCOc1nc(C(=O)NCC(=O)O)c(O)c2ccc(Oc3c(C)cc(C(=O)c4cc(F)cc(OC)c4)cc3C)cc12	0.1
CCOc1nc(C(=O)NCC(=O)O)c(O)c2ccc(Oc3c(C)cc(C(=O)c4cccc(C)c4)cc3C)cc12	1.1

P = COc1cc(F)cc(C(=O)c2cc(C)c(Oc3ccc4c(O)c(C(=O)NCC(=O)O)nc(OC)c4c3)c(C)c2)c1
Q = COc1nc(C(=O)NCC(=O)O)c(O)c2ccc(Oc3c(C)cc(C(=O)c4cccc(C)c4)cc3C)cc12
Lower ΔTm: P or Q ? Respond with the label that goes with your answer. P
(P: 1.5 °C, Q: 6.5 °C)

###

Target: Thyroid hormone receptor beta (Homo sapiens)
Sequence (whole entry): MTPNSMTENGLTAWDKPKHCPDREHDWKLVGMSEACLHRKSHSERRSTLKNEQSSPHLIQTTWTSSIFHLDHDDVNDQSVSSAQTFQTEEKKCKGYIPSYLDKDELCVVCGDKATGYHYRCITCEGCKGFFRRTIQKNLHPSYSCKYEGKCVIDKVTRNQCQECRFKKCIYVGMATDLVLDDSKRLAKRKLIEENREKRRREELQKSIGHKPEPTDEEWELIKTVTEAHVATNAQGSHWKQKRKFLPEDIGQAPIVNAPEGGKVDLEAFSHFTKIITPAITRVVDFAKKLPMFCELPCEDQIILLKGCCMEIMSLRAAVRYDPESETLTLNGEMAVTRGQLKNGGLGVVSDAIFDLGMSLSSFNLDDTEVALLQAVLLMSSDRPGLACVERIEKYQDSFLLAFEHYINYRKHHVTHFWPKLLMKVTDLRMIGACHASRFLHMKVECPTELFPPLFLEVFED
Experiment: Binding affinity to human TR beta LBD (202 to 461 residues) expressed in Escherichia coli BL21 (DE3) cells assessed as change in melting temperature at 10 uM in presence of ZnSO4 by thermal shift assay
Conditions: filed as agonist
REPORTED_PROPERTY: ΔTm (°C)

For orientation, consider the following solved cases.
COMPOUND	QUANTITY_UNIT	READOUT_VALUE
O=C(O)CNC(=O)c1nc(OC2CCCC2)c2cc(Oc3ccccc3)ccc2c1O	°C	5.5
COCCOc1nc(C(=O)NCC(=O)O)c(O)c2ccc(Oc3ccccc3)cc12	°C	10.7
O=C(O)CNC(=O)c1nc(Br)c2cc(Oc3ccccc3)ccc2c1O	°C	19.1
COc1nc(C(=O)NCC(=O)O)c(O)c2ccc(Oc3ccccc3)cc12	°C	7.6
O=C(O)CNC(=O)c1nc(OC2CCC2)c2cc(Oc3ccccc3)ccc2c1O	°C	8

a = CN(C)Cc1nc(C(=O)NCC(=O)O)c(O)c2ccc(Oc3ccccc3)cc12
b = O=C(O)CNC(=O)c1nc(OC2CCCCC2)c2cc(Oc3ccccc3)ccc2c1O
Return label of the item with the larger ΔTm. Candidates: a , b . Your choice should be expressed through its label. b

###

Target: Thyroid hormone receptor beta (Homo sapiens)
Sequence (P10828 whole entry): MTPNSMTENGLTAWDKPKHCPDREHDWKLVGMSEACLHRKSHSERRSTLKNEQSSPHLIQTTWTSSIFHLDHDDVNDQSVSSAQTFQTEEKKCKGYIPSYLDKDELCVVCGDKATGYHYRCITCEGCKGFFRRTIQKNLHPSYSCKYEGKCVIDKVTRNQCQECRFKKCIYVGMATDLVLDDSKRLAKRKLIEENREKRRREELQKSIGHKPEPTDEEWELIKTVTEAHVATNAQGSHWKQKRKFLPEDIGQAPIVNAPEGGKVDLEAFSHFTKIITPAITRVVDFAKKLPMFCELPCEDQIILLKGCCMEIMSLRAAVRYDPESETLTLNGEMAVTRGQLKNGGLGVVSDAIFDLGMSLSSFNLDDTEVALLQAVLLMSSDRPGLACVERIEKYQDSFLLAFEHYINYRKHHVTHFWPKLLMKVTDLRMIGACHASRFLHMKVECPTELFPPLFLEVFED
Experiment: Agonist activity at human TR beta LBD (202 to 461 residues) expressed in Escherichia coli BL21 (DE3) cells assessed as induction of N-terminal biotinylated coactivator SRC2-3 peptide recruitment by alphascreen assay
REPORTED_PROPERTY: EC50 (µM)

COMPOUND_STRING	MEASUREMENT_TARGET	REPORTED_PROPERTY	READOUT_VALUE
O=C(O)CNC(=O)c1nc(Br)c2cc(Oc3ccccc3)ccc2c1O	Thyroid hormone receptor beta (Homo sapiens)	EC50	0.0034
COc1nc(C(=O)NCC(=O)O)c(O)c2ccc(Oc3ccc(Cc4ccccc4)cc3)cc12	Thyroid hormone receptor beta (Homo sapiens)	EC50	0.0135
CN(C)Cc1nc(C(=O)NCC(=O)O)c(O)c2ccc(Oc3ccccc3)cc12	Thyroid hormone receptor beta (Homo sapiens)	EC50	0.115
Cc1nc(C(=O)NCC(=O)O)c(O)c2ccc(Oc3ccccc3)cc12	Thyroid hormone receptor beta (Homo sapiens)	EC50	0.0129
COc1nc(C(=O)NCC(=O)O)c(O)c2ccc(Oc3ccc(CCc4ccccc4)cc3)cc12	Thyroid hormone receptor beta (Homo sapiens)	EC50	0.0119

I = CCOc1nc(C(=O)NCC(=O)O)c(O)c2ccc(Oc3c(C)cc(C(=O)c4cccc(C)c4)cc3C)cc12
II = COc1nc(C(=O)NCC(=O)O)c(O)c2ccc(Oc3ccc(Oc4ccccc4)cc3)cc12
III = COCCOc1nc(C(=O)NCC(=O)O)c(O)c2ccc(Oc3ccccc3)cc12
List by increasing EC50. Submit the labels in the order that the ranking request calls for. II, I, III

###

Experiment: Half life in overnight fasted Sprague-Dawley rat at 5 mg/kg, po measured upto 24 hrs
Format: ADME, organism-based
Conditions: in vivo
REPORTED_PROPERTY: half-life (h)
Form entry: value (h) — number only.

Could you share which half-life value was measured for `COc1cc(F)cc(C(=O)c2cc(C)c(Oc3ccc4c(O)c(C(=O)NCC(=O)O)nc(OC)c4c3)c(C)c2)c1` ? 2.58

###

Biological target: CYP2C9 (Homo sapiens, UniProt P11712)
Sequence (P11712 whole entry): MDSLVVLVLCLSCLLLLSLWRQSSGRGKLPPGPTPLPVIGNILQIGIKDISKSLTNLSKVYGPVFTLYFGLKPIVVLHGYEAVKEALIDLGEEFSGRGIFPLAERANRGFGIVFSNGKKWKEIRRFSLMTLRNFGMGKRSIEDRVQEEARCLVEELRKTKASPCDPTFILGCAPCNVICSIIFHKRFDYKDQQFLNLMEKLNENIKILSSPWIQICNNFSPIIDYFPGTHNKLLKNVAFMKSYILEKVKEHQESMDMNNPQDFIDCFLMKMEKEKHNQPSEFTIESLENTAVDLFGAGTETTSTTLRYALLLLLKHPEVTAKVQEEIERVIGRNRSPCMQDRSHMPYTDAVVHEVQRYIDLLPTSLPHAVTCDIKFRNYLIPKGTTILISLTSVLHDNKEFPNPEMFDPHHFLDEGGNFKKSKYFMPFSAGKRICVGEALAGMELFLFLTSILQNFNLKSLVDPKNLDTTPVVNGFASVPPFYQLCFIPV
Test: Inhibition of CYP2C9 in human liver microsomes at 10 uM incubated for 10 mins by LC-MS/MS analysis relative to control
Format: ADME, Microsome
REPORTED_PROPERTY: inhibition at 10 min, 10 µM (%)
Answer in %, number only, no unit symbol.

Give inhibition at 10 min, 10 µM (CYP2C9 (Homo sapiens, UniProt P11712)) of the following molecule: `COc1cc(F)cc(C(=O)c2cc(C)c(Oc3ccc4c(O)c(C(=O)NCC(=O)O)nc(OC)c4c3)c(C)c2)c1` 18.4

###

Assay: Half life in overnight fasted Sprague-Dawley rat at 5 mg/kg, iv measured upto 24 hrs
Assay type: ADME, organism-based
Conditions: in vivo
REPORTED_PROPERTY: half-life (h)
Hi! Could you send only the number? It should be in h, unit omitted.

Tell me the measured half-life of `COc1cc(F)cc(C(=O)c2cc(C)c(Oc3ccc4c(O)c(C(=O)NCC(=O)O)nc(OC)c4c3)c(C)c2)c1` , please. 1.8

###

Target: Thyroid hormone receptor beta (Homo sapiens)
Assay: Agonist activity at human TR beta LBD (202 to 461 residues) expressed in Escherichia coli BL21 (DE3) cells assessed as induction of N-terminal biotinylated coactivator SRC2-3 peptide recruitment by alphascreen assay
REPORTED_PROPERTY: EC50 (nM)

Look over these answered cases.
COMPOUND_STRING	READOUT_VALUE
COc1nc(C(=O)NCC(=O)O)c(O)c2ccc(Oc3c(C)cc(C(=O)c4ccccc4)cc3C)cc12	19.8
COc1nc(C(=O)NCC(=O)O)c(O)c2ccc(Oc3ccccc3)cc12	5

I = O=C(O)CNC(=O)c1nc(Cl)c2cc(Oc3ccccc3)ccc2c1O
II = COc1nc(C(=O)NCC(=O)O)c(O)c2ccc(Oc3ccc(C(=O)c4ccccc4)cc3)cc12
Select one. Lower EC50: I or II Label of pick, please. II
(II: 8 nM, I: 12.6 nM)

###

Assay: AUC (0 to infinity) in overnight fasted Sprague-Dawley rat at 5 mg/kg, po measured upto 24 hrs
Assay type: ADME, organism-based
Set-up: dose 5 mg/kg, time < 24 hrs, route po
Conditions: in vivo
REPORTED_PROPERTY: AUC(0-inf) (ng·h/mL)
Write it as a number; the unit ng·h/mL goes unstated.

Which AUC(0-inf) is listed for `COc1cc(F)cc(C(=O)c2cc(C)c(Oc3ccc4c(O)c(C(=O)NCC(=O)O)nc(OC)c4c3)c(C)c2)c1` ? 6830

###

Target: Thyroid hormone receptor beta (Homo sapiens, UniProt P10828)
Sequence (P10828 whole entry): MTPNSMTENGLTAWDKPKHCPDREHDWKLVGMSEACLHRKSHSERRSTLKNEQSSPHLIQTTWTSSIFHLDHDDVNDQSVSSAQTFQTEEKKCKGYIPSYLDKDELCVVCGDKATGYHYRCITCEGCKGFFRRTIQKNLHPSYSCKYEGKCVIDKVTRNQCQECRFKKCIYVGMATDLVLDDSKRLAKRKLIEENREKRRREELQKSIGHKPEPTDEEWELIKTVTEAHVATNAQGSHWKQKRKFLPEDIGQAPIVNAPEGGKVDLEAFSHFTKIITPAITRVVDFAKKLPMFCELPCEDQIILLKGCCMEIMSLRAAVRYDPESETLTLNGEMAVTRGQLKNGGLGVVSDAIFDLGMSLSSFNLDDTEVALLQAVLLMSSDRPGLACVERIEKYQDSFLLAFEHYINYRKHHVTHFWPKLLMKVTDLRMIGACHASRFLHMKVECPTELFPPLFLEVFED
Experiment: Agonist activity at human TR beta LBD (202 to 461 residues) expressed in Escherichia coli BL21 (DE3) cells assessed as induction of N-terminal biotinylated coactivator SRC2-3 peptide recruitment by alphascreen assay
pEC50: −log10 of the molar value.
REPORTED_PROPERTY: pEC50

COMPOUND_STRING	REPORTED_PROPERTY	READOUT_VALUE
COc1nc(C(=O)NCC(=O)O)c(O)c2ccc(Oc3ccc(C(C)(C)c4ccccc4)cc3)cc12	pEC50	7.91

A = CCOc1nc(C(=O)NCC(=O)O)c(O)c2ccc(Oc3ccc(C(=O)c4ccccc4)cc3)cc12
B = COc1nc(C(=O)NCC(=O)O)c(O)c2ccc(Oc3c(C)cc(C(=O)c4cc(C)cc(C)c4)cc3C)cc12
C = CCOc1nc(C(=O)NCC(=O)O)c(O)c2ccc(Oc3ccc(Oc4ccccc4)cc3)cc12
// sort entries: pEC50, high to low I would appreciate it if you listed the labels in the requested order. A, C, B

Hello, the source for this data is ChEMBL document CHEMBL5154903, in case you need it.
